Listed here are molecules together with their documented composite z-score.
STUDY SYSTEM: Torsin-1A-interacting protein 2 (Homo sapiens)
PROTOCOL SUMMARY: LULL1 binders on small-molecule microarray, primary screen, cell lysate, human LULL1 lysate, 635/667 nm fluorescence (AID 1092);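 further: probe is lysate of COS7 cells overexpressing human LULL1; score merges per-feature 667 nm fluorescence with signal-to-noise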
STUDY CONDITIONS: hLULL1 lysate binding, 635 nm fluorescence, higher = more signal
Lab note: record the figure alone, no unit after it.

Illustrative cases are given below, each with its answer.
MOLECULE	MEASURED QUANTITY	VALUE OBSERVED
CC(CCN1CCCCc2nc(C)c(C)cc21)=NOC(C)CN1CCCCc2nc(C)c(C)cc21 (stereo not drawn)	composite z-score	2.37
CCOC(=O)C[C@H]1[C@H](OC(=O)c2cc3ccccc3oc2=O)[C@@H](NC(=O)c2ccc3ccccc3n2)c2cc(OCCCO)ccc2N1C(=O)c1ccccc1	composite z-score	0.413
CCOC(=O)CCN1C(=O)[C@H]2[C@H]3[C@H](O)[C@H](O)CC(=NOCc4ccccc4)[C@@H]3CC[C@H]2C1=O	composite z-score	0.175

Continue with the next molecule.
Can you share its composite z-score? I mean this molecule: O=C1CCCC=C1C(O)CCOCc1ccccc1 (stereo not drawn) -1.08

* * *

STUDY SYSTEM: Calmodulin-1 (Homo sapiens) (UniProt P0DP23)
PROTOCOL SUMMARY: CALM1 binders on microarrays, EGTA buffer, profiling panel, biochemical, small-molecule microarray, Cy5-labelled CALM1 (AID 1111);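 further: labelled calmodulin applied in Tris saline Tween buffer holding calcium plus EGTA and DTT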
STUDY CONDITIONS: Cy5-CALM1 binding fluorescence, higher = more signal
Listed here are compounds together with their documented composite z-score.

For the record CCCNC(=O)[C@@H]1c2ccccc2C(=O)N(Cc2ccccc2Cl)[C@H]1c1ccc(CO)cc1 , what value of composite z-score is listed for Calmodulin-1 (Homo sapiens) (UniProt P0DP23)? 0.936

For the record C[C@H]1Cc2c(-c3ccccc3)nc3c(c2CO1)CN(CCOc1ccccc1)CC3 , what value of composite z-score is listed for Calmodulin-1 (Homo sapiens) (UniProt P0DP23)? 0.491

For the record O=C1C[C@@H](O)[C@@H](O)[C@@H]2[C@@H]3C(=O)N(Cc4ccc5c(c4)OCO5)C(=O)[C@@H]3CC[C@@H]12 , what value of composite z-score is listed for Calmodulin-1 (Homo sapiens) (UniProt P0DP23)? -0.504

For the record CCc1cc2c(nc1CC)CCN(CCC(C)=NO[C@@H](C)c1cc(-c3c(C)cc(C)cc3C)no1)C2 , what value of composite z-score is listed for Calmodulin-1 (Homo sapiens) (UniProt P0DP23)? 0.0642

For the record COc1ccc(O[C@H]2C=C[C@@H](c3ccccc3)O[C@@H]2CON=C[C@@H](C)[C@H](OCc2ccccc2)C(C)C)cc1 , what value of composite z-score is listed for Calmodulin-1 (Homo sapiens) (UniProt P0DP23)? -0.323

For the record CC(C)[C@@H](OCc1ccccc1)[C@H](C)C=NOC[C@@H](C)[C@H](OCc1ccccc1)C(C)C , what value of composite z-score is listed for Calmodulin-1 (Homo sapiens) (UniProt P0DP23)? 0.148

For the record O=C1[C@H]2[C@H]3[C@H](O)[C@H](O)CC(=NOCc4ccccc4)[C@@H]3CC[C@H]2C(=O)N1C1CCCCC1 , what value of composite z-score is listed for Calmodulin-1 (Homo sapiens) (UniProt P0DP23)? -0.161

For the record COCCNC(=O)OCC1CCCC2(CC(OC(=O)NCCc3ccc(F)cc3)CC(CCC(=O)N[C@@H](C)C(=O)OC)O2)O1 (stereo not given in full) , what value of composite z-score is listed for Calmodulin-1 (Homo sapiens) (UniProt P0DP23)? -0.104

For the record CO[C@H]1COC(=O)CC=C[C@H](C)[C@@H](NS(=O)(=O)c2ccc(C)cc2)COC(=O)CC=C[C@@H]1C , what value of composite z-score is listed for Calmodulin-1 (Homo sapiens) (UniProt P0DP23)? -0.46

For the record COCCOC(=O)N1C(=O)[C@@]2(c3cc(C#CCNC(N)=O)ccc31)[C@H](c1ccccc1OCCO)N1[C@H](c3ccccc3)[C@H](c3ccccc3)OC(=O)[C@H]1[C@@H]2C(=O)N1CCN(c2ncccn2)CC1 , what value of composite z-score is listed for Calmodulin-1 (Homo sapiens) (UniProt P0DP23)? 0.821

For the record COC(=O)[C@H](C)NC(=O)CCC1CC(OC(=O)NCc2cccc3ccccc23)CC2(CCCC(COC(=O)NCC3CCCCC3)O2)O1 (stereo not given in full) , what value of composite z-score is listed for Calmodulin-1 (Homo sapiens) (UniProt P0DP23)? 0.708

For the record CN1C(=O)C2C(C1=O)C1C=C(CCCO)C2C(c2ccc(CN3CCCC3)cc2)N1C (stereo not given) , what value of composite z-score is listed for Calmodulin-1 (Homo sapiens) (UniProt P0DP23)? -0.573

For the record [N-]=[N+]=Nc1ccccc1C[C@@]1(C(N)=O)N=C(c2ccc(OCCCO)cc2)O[C@@H]1c1ccccc1 , what value of composite z-score is listed for Calmodulin-1 (Homo sapiens) (UniProt P0DP23)? 1.7

For the record O=C1C[C@@H](O)[C@@H](O)[C@@H]2[C@@H]3C(=O)N(c4ccc(F)cc4F)C(=O)[C@@H]3CC[C@@H]12 , what value of composite z-score is listed for Calmodulin-1 (Homo sapiens) (UniProt P0DP23)? -0.0799

For the record CO[C@@H]1COC(=O)CC=C[C@@H](C)[C@@H]2C=C[C@H](O)[C@@H](COC(=O)CCC[C@H]1C)O2 , what value of composite z-score is listed for Calmodulin-1 (Homo sapiens) (UniProt P0DP23)? -0.859
